Measured inhibition at 10 µM by item
- TGT: His6 tagged human recombinant FABP4 (Homo sapiens)
- Construct: purchased Cayman Chemicals 10009549
- Sequence (P15090 whole entry): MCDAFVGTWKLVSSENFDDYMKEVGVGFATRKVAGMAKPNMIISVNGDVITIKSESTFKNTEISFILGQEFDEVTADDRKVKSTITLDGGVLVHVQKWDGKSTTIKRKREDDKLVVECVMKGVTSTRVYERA
- TEST DETAILS: FABP4 TR-FRET assay: displacement of BODIPY FL C12 fatty acid
- CONDITION SUMMARY: 10 μM compound, triplicates, inhibition of BODIPY FL C12 binding
- Experimental: Activity of compounds with FABP4 was profiled using a Terbium (Tb) based time resolved fluorescence energy transfer (TR-FRET) assay. […] The TR-FRET signals were recorded using an EnVision Multilabel plate reader (PerkinElmer; TB excitation 320 nm, BODIPY FL C12 emission 520 nm; TB emission 615 nm). Relative fluorescence ratio (520 nm*10,000/615 nm) were used to calculate the compound mediated inhibition of BODIPY C12 FL fatty acid binding to FABP4. […]
Unit % implied. Number only.

Known results for compounds:
compound="CCCC1CCc2c(n(Cc3cccc(C#N)c3)c3c(C(=O)O)cccc23)C1 (centres unmarked)" readout_name="inhibition at 10 µM" numeric_value=81.4
compound="CCCCCC1CCc2c(c3cccc(C(=O)O)c3n2Cc2cccc(C#N)c2)C1 (centres unmarked)" readout_name="inhibition at 10 µM" numeric_value=83.3
compound="CCCCCCC1CCCc2c(n(Cc3cccc(C#N)c3F)c3c(C(=O)O)cccc23)C1 (centres unmarked)" readout_name="inhibition at 10 µM" numeric_value=95.5

Recorded inhibition at 10 µM of NC(=O)c1cccc(Cn2c3c(c4cccc(C(=O)O)c42)CCC(CCc2ccccc2)C3)c1 (centres unmarked) , please.
94.1
